# credit: the Immune Epitope Database (IEDB)

Target: HLA-B*18:01
Experiment: IEDB peptide-MHC binding, purified MHC/direct/fluorescence; filed as Kd, often an IC50 or EC50 that approximates it; bounds were set here for any values at or beyond the usual limits of such assays
Conditions: source organism: Influenza A virus (A/chicken/Hubei/wm/1997(H5N1))
experimental-endpoint: Kd

1) EKPKFLPDL    ≥ 20 µM

====

Below, each entry is listed with its recorded Kd.
Biological target: HLA-A*03:01
Assay: IEDB peptide-MHC binding, purified MHC/competitive/radioactivity; filed as Kd, often an IC50 or EC50 that approximates it; bounds were set here for any values at or beyond the usual limits of such assays
Settings: source organism: Vaccinia virus WR
experimental-endpoint: Kd

1. VTDLENRLKK    291 nM
2. VMNIERQDYR    11400 nM
3. LILAEYIRHR    2190 nM
4. DAEACYIYK    1350 nM
5. DVRDKRRKY    ≥ 28900 nM
6. LIHDNIMYTY    45.3 nM
7. RTFNEDLFR    73.5 nM
8. PFTQHLLNIR    ≥ 22300 nM
9. KMAVEVGSIR    4540 nM
10. EILRNYLRLY    489 nM
11. DFIRRKYLIY    8650 nM
12. TIKYSNDNRY    ≥ 20600 nM
13. DLTTMPTYK    757 nM
14. SADNHPKMIK    16.7 nM
15. DVHPGEPVVK    15400 nM
16. AQQFANVISK    83.8 nM
17. VSAQNISFK    14.6 nM
18. KIKQDVRDK    241 nM
19. IILAALFMY    20.5 nM
20. RIVTVTTKDY    427 nM
21. SILARRPTPK    1.08 nM
